Reference source: ChEMBL document CHEMBL4017480

target: Cytochrome P450 3A4 (Homo sapiens)
Sequence (P08684 whole entry): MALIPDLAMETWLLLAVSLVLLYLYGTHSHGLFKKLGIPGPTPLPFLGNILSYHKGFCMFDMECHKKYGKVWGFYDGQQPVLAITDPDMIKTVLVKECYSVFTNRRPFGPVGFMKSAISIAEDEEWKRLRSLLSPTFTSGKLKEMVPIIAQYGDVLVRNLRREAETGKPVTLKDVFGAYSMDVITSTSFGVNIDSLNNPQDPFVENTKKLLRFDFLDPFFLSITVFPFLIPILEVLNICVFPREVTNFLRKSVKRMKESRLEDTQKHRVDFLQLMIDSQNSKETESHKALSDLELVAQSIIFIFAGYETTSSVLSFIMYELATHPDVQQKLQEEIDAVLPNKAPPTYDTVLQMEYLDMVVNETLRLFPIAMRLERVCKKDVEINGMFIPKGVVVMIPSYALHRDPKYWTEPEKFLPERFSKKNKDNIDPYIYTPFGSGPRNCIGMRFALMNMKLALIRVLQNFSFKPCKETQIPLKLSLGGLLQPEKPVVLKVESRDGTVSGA
measuredMetric: pIC50
API: returns pIC50 as number; meaning -log10 of concentration in mol/L.

pIC50 reported for this molecule C=CC(=O)Nc1cccc(C)c1Nc1ncc2cc(-c3c(Cl)c(OC)cc(OC)c3Cl)ccc2n1 : 5.52

====

target: Vascular endothelial growth factor receptor 2 (Homo sapiens)
Sequence (P35968 whole entry): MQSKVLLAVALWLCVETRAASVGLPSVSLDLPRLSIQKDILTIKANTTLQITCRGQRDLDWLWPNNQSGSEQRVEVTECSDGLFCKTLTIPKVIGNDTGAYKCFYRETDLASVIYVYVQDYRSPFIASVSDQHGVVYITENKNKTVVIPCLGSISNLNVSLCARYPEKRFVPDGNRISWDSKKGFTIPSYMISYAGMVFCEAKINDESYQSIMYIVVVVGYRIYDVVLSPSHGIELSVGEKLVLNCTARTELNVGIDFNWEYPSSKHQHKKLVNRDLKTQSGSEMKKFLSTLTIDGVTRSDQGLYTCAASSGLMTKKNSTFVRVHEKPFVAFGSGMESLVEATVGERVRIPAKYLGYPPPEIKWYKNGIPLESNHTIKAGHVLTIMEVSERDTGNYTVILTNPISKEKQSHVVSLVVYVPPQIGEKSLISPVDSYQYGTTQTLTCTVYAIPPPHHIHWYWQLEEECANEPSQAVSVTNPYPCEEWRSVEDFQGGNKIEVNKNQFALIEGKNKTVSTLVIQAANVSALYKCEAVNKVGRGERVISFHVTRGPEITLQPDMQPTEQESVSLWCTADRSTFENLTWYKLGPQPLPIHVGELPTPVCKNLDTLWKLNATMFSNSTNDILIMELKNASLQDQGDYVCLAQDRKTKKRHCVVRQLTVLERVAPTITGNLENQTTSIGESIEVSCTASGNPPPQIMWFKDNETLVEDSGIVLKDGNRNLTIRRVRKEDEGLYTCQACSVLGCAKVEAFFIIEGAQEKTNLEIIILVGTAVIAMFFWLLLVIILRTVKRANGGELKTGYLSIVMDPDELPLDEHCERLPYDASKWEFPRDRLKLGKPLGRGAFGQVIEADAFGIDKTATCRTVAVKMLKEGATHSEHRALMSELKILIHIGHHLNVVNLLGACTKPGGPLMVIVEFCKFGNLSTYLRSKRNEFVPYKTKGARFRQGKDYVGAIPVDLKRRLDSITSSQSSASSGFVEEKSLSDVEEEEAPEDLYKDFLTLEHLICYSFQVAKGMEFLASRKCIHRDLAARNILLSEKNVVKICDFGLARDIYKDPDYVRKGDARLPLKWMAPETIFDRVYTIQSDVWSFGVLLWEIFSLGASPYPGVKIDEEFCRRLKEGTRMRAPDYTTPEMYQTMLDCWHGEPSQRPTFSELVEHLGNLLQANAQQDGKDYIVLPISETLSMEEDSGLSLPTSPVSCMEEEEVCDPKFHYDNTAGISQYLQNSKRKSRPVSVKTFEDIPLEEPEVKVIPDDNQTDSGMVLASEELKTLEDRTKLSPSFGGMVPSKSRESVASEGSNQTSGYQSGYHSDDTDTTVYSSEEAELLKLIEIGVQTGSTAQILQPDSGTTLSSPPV
measuredMetric: IC50

Record C=CC(=O)Nc1cccc(C)c1Nc1ncc(OCc2c(F)c(OC)cc(OC)c2F)cn1 ; system Vascular endothelial growth factor receptor 2 (Homo sapiens); IC50 = > 10 µM

====

Notes on pIC50 obtained with Tyrosine-protein kinase BTK (Homo sapiens, UniProt Q06187).
Sequence (Q06187 whole entry): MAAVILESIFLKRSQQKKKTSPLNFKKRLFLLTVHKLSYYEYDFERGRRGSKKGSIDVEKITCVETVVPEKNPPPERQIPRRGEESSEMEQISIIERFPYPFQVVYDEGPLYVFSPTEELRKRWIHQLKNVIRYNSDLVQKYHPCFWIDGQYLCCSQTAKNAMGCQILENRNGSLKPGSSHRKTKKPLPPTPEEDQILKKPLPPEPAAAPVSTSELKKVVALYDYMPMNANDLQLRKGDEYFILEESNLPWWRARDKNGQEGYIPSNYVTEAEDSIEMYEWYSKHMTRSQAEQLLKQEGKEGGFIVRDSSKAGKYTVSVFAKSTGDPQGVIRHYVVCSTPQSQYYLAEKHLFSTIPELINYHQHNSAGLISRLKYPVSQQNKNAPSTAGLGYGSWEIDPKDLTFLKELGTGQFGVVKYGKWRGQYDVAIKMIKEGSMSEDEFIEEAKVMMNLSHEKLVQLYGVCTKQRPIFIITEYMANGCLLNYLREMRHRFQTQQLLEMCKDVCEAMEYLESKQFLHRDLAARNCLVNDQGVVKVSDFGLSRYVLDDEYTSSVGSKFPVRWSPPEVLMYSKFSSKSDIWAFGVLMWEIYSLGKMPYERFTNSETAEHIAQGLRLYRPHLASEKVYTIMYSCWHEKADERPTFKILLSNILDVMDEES
pIC50: −log10 of the molar value.

• C=CC(=O)N[C@H]1COC[C@H]1Nc1ncc(OCc2c(F)c(OC)cc(OC)c2F)cn1 = < 5.00

Now examine the next entry.
pIC50 reported for this molecule C=CC(=O)Nc1cccc(C)c1Nc1ncc(OCc2c(F)c(OC)cc(OC)c2F)cn1 : < 5.00

====

experiment: Intrinsic clearance in mouse liver microsomes at 1 uM measured after 60 mins in presence of NADPH by LC-MS/MS analysis; format: ADME, microsome; conditions: read-out: CLH
measuredMetric: CLint scaled at 1 µM (mL/min/kg)
Answer format: numeric, mL/min/kg implied, no suffix.

• C=CC(=O)Nc1cc(N2CCN(CC)CC2)cc(C)c1Nc1ncc(OCc2c(F)c(OC)cc(OC)c2F)cn1 = 180
• C=CC(=O)Nc1cccc(C)c1Nc1ncc(OCc2c(F)c(OC)cc(OC)c2F)cn1 = 9640

CLint scaled at 1 µM reported for this compound C=CC(=O)N[C@H]1CCOC[C@H]1Nc1ncc(OCc2c(F)c(OC)cc(OC)c2F)cn1 : 564

CLint scaled at 1 µM reported for this compound C=CC(=O)Nc1cccc(C)c1Nc1ncc2cc(-c3c(Cl)c(OC)cc(OC)c3Cl)ccc2n1 : 97

====

Notes on IC50 obtained with Epidermal growth factor receptor (Homo sapiens).
Sequence (P00533 whole entry): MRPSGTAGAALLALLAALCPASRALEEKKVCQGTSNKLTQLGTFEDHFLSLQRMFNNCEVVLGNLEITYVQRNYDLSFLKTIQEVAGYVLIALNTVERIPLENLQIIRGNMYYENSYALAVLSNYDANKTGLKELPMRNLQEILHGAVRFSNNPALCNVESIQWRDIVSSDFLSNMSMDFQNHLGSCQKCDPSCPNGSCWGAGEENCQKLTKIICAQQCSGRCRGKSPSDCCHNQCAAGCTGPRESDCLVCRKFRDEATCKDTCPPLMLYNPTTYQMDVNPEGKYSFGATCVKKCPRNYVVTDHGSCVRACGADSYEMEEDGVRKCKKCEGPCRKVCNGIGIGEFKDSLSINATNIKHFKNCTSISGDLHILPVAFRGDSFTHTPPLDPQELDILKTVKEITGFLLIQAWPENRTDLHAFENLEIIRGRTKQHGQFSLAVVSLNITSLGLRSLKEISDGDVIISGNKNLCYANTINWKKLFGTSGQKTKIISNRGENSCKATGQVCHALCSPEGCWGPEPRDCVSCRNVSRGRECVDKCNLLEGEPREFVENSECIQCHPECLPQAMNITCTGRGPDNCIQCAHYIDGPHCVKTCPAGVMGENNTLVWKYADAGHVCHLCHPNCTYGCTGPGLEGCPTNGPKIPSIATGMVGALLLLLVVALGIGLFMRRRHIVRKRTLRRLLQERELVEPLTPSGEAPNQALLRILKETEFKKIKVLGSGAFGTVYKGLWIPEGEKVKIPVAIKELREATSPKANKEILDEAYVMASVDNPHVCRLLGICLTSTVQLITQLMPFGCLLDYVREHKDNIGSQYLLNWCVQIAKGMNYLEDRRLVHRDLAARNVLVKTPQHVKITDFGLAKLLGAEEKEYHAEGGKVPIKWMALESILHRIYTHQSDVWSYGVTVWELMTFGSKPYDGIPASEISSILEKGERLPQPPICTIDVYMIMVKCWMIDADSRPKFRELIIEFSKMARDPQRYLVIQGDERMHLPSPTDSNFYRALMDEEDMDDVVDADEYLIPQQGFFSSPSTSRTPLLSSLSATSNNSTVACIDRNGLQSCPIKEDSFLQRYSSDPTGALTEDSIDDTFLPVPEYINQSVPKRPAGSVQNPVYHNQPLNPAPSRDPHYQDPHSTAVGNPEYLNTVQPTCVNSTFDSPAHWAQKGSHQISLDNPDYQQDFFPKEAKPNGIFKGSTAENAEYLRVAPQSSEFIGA

* C=CC(=O)N[C@H]1COC[C@H]1Nc1ncc(OCc2c(F)c(OC)cc(OC)c2F)cn1 | > 10 µM

Now examine the next entry.
IC50 reported for this compound C=CC(=O)Nc1cccc(C)c1Nc1ncc2cc(-c3c(Cl)c(OC)cc(OC)c3Cl)ccc2n1 : > 10 µM

====

test: Kinetic solubility of the compound at pH 7.4; type: physicochemical; details: buffer, read-out: Kinetic_solubility
measuredMetric: solubility kinetic (µg/mL)
Answer format: numeric, µg/mL implied, no suffix.

• C=CC(=O)N[C@H]1COC[C@H]1Nc1ncc(OCc2c(F)c(OC)cc(OC)c2F)cn1 = 78

solubility kinetic reported for this molecule C=CC(=O)Nc1cccc(C)c1Nc1ncc(OCc2c(F)c(OC)cc(OC)c2F)cn1 : 39

====

target: VEGFR2 (Homo sapiens); assay: Inhibition of human VEGFR2 at 10 uM using poly[Glu:Tyr] (4:1) as substrate measured after 120 mins in presence of [gamma33P]ATP by P81 ion exchange chromatographic method relative to control; settings: human VEGFR2 kinase, probe poly[Glu:Tyr] (4:1)
Sequence (P35968 whole entry): as the sequence (P35968 whole entry) above
measuredMetric: inhibition at 2 h, 10 µM (%)
Answer format: numeric, % implied, no suffix.

• C=CC(=O)Nc1cccc(C)c1Nc1ncc(OCc2c(F)c(OC)cc(OC)c2F)cn1 = 19
• C=CC(=O)Nc1cccc(C)c1Nc1ncc2cc(-c3c(Cl)c(OC)cc(OC)c3Cl)ccc2n1 = 23

inhibition at 2 h, 10 µM reported for this compound C=CC(=O)N[C@H]1COC[C@H]1Nc1ncc(OCc2c(F)c(OC)cc(OC)c2F)cn1 : 11
